Hey, just so you know, these numbers are from ChEMBL document CHEMBL4680135.

Target Of Assay: Tryptophan 2,3-dioxygenase (Homo sapiens, UniProt P48775)
Sequence (P48775 whole entry): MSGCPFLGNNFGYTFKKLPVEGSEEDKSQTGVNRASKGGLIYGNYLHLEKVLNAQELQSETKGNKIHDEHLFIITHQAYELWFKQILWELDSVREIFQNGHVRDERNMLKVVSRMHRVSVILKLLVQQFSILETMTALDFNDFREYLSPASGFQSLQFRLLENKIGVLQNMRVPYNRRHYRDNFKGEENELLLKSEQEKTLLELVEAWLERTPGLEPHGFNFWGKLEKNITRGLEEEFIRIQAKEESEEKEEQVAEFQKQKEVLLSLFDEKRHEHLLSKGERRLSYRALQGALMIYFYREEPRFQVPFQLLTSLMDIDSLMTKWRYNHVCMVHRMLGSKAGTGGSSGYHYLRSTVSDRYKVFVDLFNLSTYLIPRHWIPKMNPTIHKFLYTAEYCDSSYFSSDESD
Run Description: Inhibition of recombinant human TDO assessed as reduction in kynurenine formation using L-tryptophan as substrate incubated for 45 mins by microplate reader assay
Test Readout: pIC50
To interpret pIC50, take it as minus log10 of a concentration measured in moles per litre.

Consider the molecule shown here: `CC(=O)Nc1cc(Nc2ccc(F)cn2)c2cc(C(=O)O)[nH]c2c1` What is its recorded pIC50?
4.93

Note, next up: `CC(=O)Nc1cc(Nc2ccc(F)c(C3CC3)c2)c2cc(C(=O)O)[nH]c2c1`
5.26

Would you mind doing `COc1cc(Nc2cc(NC(C)=O)cc3[nH]c(C(=O)O)cc23)ccc1F` as well?
5.60

Then `CC(=O)Nc1cc(Nc2ccc(F)c(C)c2)c2cc(C(=O)O)[nH]c2c1` ?
5.77

Same question, `CCNc1cc(Nc2ccc(F)c(Cl)c2)c2cc(C(=O)O)[nH]c2c1` this time
5.45

----------
Target Of Assay: Tryptophan 2,3-dioxygenase (Homo sapiens, UniProt P48775)
Run Description: Inhibition of recombinant human TDO assessed as reduction in kynurenine formation using L-tryptophan as substrate incubated for 45 mins by microplate reader assay
pIC50: −log10 of the molar value.
Label True when pIC50 is at or above 5; otherwise label False.

Identify whether the reported pIC50 of the following compound is 5 or greater: `CC(=O)Nc1cc(Nc2ccc(C(F)(F)F)cc2)c2cc(C(=O)O)[nH]c2c1`
False

What do you get for `CC(=O)Nc1cc(Nc2ccc(F)c(Oc3ccccc3)c2)c2cc(C(=O)O)[nH]c2c1` ?
True

# iterate: `COc1cc(Nc2ccc(F)c3[nH]c(C(=O)O)cc23)cc(OC)c1OC`
False

Also `CC(=O)Nc1cc(Nc2ccc(F)c(OCC3CC3)c2)c2cc(C(=O)O)[nH]c2c1` , if possible.
True

Same question for `COc1ccc(Nc2cc(NC(C)=O)cc3[nH]c(C(=O)O)cc23)nc1` please.
True

Moving on to the next compound: `COc1ccc(Nc2cc(NC(C)=O)cc3[nH]c(C(=O)O)cc23)cc1`
True

Now this one: `CCNC1=C/C(=N\c2ccc(F)c(Cl)c2)c2cc(C(=O)O)[nH]c2C1=O`
True

Do the same for `CC(=O)Nc1cc(Nc2ccc(F)c(-c3ccsc3)c2)c2cc(C(=O)O)[nH]c2c1` please
True

----------
Target Of Assay: Indoleamine 2,3-dioxygenase 1 (Homo sapiens, UniProt P14902)
Sequence (P14902 whole entry): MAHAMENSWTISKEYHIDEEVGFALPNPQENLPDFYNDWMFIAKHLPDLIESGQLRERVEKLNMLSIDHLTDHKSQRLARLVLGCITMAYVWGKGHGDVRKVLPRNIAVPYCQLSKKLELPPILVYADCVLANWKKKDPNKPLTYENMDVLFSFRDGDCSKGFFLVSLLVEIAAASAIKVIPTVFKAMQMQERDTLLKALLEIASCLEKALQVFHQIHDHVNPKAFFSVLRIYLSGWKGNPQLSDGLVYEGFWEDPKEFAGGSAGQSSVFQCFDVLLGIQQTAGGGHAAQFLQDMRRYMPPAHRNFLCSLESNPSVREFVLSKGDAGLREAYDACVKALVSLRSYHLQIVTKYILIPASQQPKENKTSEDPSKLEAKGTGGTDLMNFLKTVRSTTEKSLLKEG
Run Description: Inhibition of recombinant human IDO1 assessed as reduction in kynurenine formation using L-tryptophan as substrate incubated for 45 mins by microplate reader assay
Test Readout: pIC50
In plain terms, pIC50 is the concentration in mol/L turned into minus its base-10 logarithm.

So what pIC50 did `CC(=O)Nc1cc(Nc2ccc(F)cn2)c2cc(C(=O)O)[nH]c2c1` get with Indoleamine 2,3-dioxygenase 1 (Homo sapiens, UniProt P14902)?
4.97

Same lookup for `COc1ccc(Nc2cc(NC(C)=O)cc3[nH]c(C(=O)O)cc23)nc1` , please.
5.33

Subsequent entry: `COc1ccc(Nc2ccc(F)c(Cl)c2)c2cc(C(=O)O)[nH]c12`
4.49

Here is the next molecule: `CC(=O)Nc1cc(Nc2ccc(OC(F)F)cc2)c2cc(C(=O)O)[nH]c2c1`
5.50

Here is the next molecule: `CC(=O)Nc1cc(Nc2ccc(F)c(Cl)c2)c2cc(C(=O)O)[nH]c2c1`
5.08

// repeat for `O=C(O)c1cc2c(Nc3ccc(F)c4[nH]c(C(=O)O)cc34)ccc(F)c2[nH]1` and report
5.57

Same again, this time with `CC(=O)Nc1cc(Nc2ccc(F)c(C3CC3)c2)c2cc(C(=O)O)[nH]c2c1`
5.53

Also need `CC(=O)Nc1cc(Nc2cccc3[nH]ncc23)c2cc(C(=O)O)[nH]c2c1` , thanks.
5.12

Now give it for `CC(=O)Nc1cc(Nc2ccc(F)c(OC(F)(F)F)c2)c2cc(C(=O)O)[nH]c2c1` too.
5.86

And what about the molecule `CC(=O)Nc1cc(Nc2ccc(C(F)(F)F)cc2)c2cc(C(=O)O)[nH]c2c1` ?
4.26

# repeat for `O=C(O)c1cc2c(Nc3ccc(F)c(Br)c3)ccc(F)c2[nH]1`
5.00

What about this molecule? `CC(=O)Nc1cc(Nc2ccc(F)nc2)c2cc(C(=O)O)[nH]c2c1`
4.41

Query `CC(=O)Nc1cc(Nc2ccc(F)c(Oc3ccccc3)c2)c2cc(C(=O)O)[nH]c2c1` next
5.23

Try the molecule `CCNc1cc(Nc2ccc(F)c(Cl)c2)c2cc(C(=O)O)[nH]c2c1`
5.76

`COc1ccc(Nc2cc(NC(C)=O)cc3[nH]c(C(=O)O)cc23)cn1` , same question.
5.47

One more molecule: `O=C(O)c1cc2c(Nc3ccc(F)c(Cl)c3)ccc(F)c2[nH]1`
4.39

Could you do the same for `Cc1cc(Nc2ccc(F)c(Cl)c2)c2cc(C(=O)O)[nH]c2c1` , please?
4.45

Also `CC(=O)Nc1cc(Nc2ccc(F)c(-c3ccsc3)c2)c2cc(C(=O)O)[nH]c2c1` , if possible.
5.41

Same read-out for `O=C(O)c1cc2c(Nc3cc(Br)ccc3F)ccc(F)c2[nH]1` ?
4.55

Repeat for the following molecule: `CC(=O)Nc1cc(Nc2ccc(OC(F)(F)F)cc2)c2cc(C(=O)O)[nH]c2c1`
4.63

Please give the result for `COc1cc(Nc2ccc(F)c3[nH]c(C(=O)O)cc23)ccc1F` too.
4.26

Next molecule: `COc1ccc(Nc2cc(NC(C)=O)cc3[nH]c(C(=O)O)cc23)cc1`
5.77

Here is the next molecule: `CC(=O)Nc1cc(Nc2ccc(F)c(OCC(F)(F)F)c2)c2cc(C(=O)O)[nH]c2c1`
5.34
